- test-system: T1, recombinant purified human IL-12 p70 (human, UniProt P29459 23-219)
- T1 construct: Disulfide-linked heterodimer of p35 and p40; also called hIL-12; Hu IL-12
- T1 sequence 1: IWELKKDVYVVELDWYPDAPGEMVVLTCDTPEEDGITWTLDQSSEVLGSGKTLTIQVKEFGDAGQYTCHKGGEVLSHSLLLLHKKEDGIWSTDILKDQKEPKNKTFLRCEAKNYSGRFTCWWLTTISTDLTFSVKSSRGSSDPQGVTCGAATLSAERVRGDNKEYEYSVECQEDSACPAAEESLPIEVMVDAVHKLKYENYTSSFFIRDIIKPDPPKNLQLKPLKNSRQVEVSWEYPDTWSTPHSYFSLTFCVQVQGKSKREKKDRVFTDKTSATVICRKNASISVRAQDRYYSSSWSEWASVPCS
- T1 sequence 2: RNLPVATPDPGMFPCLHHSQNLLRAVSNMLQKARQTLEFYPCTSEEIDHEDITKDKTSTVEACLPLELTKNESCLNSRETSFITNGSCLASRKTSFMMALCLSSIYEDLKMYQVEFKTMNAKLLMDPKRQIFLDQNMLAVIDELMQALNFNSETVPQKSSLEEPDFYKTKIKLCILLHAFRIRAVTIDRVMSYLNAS
- experimental-details: competition ELISA on coated human IL-12, competitor of 0.8 µg/ml biotinylated 8E1, Expt. 3
IC50: recorded values

binder	units-text	IC50
additional humanized anti-IL-12 antibody 8E1.4 (antibody, IgG1, V domains shown, IgG1/kappa) VH: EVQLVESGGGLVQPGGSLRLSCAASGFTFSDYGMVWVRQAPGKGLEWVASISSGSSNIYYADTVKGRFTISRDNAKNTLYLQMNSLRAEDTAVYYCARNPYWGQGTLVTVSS VL: DIQMTQSPSSLSASVGDRVTITCKASQNVGTNVAWYQQKPGKAPKGLIYSASHRYSGVPSRFSGSGSGTDFTLTISSLQPEDFATYYCQQYNSYPLTFGGGTKVEIKR	mg/L	8.33
additional humanized anti-IL-12 antibody 8E1.6 (antibody, V domains shown, IgG1/kappa, expressed in 293T/17 cells from pVg1.D.Tt (D356E L358M, L234A L235A) and pVk) VH: EVQLVESGGGLVQPGGSLRLSCAASGFTFSDYGMVWVRQAPGKGLEWVASISSGSSNIYYADTVKGRFTISRDDAKNTLYLQMNSLRAEDTAVYYCARNPYWGQGTLVTVSS VL: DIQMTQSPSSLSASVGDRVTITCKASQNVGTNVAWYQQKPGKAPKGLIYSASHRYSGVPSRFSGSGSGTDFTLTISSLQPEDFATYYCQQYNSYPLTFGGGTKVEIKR	mg/L	1.61
additional humanized anti-IL-12 antibody 8E1.5 (antibody, IgG1, V domains shown, IgG1/kappa) VH: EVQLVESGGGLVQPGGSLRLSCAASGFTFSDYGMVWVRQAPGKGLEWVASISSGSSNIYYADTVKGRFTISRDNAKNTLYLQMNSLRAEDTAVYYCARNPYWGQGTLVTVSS VL: DIQMTQSPSSLSASVGDRVTITCKASQNVGTNVAWYQQKPGKAPKGLIYSASHRYSGVPDRFSGSGSGTDFTLTISSLQPEDFATYYCQQYNSYPLTFGGGTKVEIKR	mg/L	13.4
murine anti-human IL-12p40 monoclonal antibody 8E1 (antibody, V domains shown, Murine mAb; also called biotinylated 8E1) VH: EVKLVESGGGLVQPGGSRKLSCAASGFTFSDYGMVWVRQAPGKGLEWVASISSGSSNIYYADTVKGRFTISRDDPNNTLFLQMRSLRSEDTAMYYCARNPYWGQGTTLTVSS VL: DIVMTQSQKFMSTSVGDRVSVTCKASQNVGTNVAWYQQKPGQSPKGLIYSASHRYSGVPDRFAGSGSGTDFTLTISNVQSEDLAEYFCQQYNSYPLTFGGGTKLELKR	mg/L	2.28
